Test system: recombinant NL4-3 virus
measurementNotes: HIV cell culture assay (luciferase reporter antiviral activity)
Assay type: cell-based
assaySetup: MT-2 cells infected for 4-5 days with recombinant NL4-3 Renilla luciferase virus; read-out: EC50
measuredProperty: EC50 (pM)
I only need the number, in pM, no unit after it.

Input: Checklist item: EC50 tested on recombinant NL4-3 virus, entry Cc1nccnc1-c1ccc2c(=O)n(-c3ccc(Cl)c4c(NS(C)(=O)=O)nn(C)c34)c([C@H](Cc3cc(F)cc(F)c3)NC(=O)Cc3cn(C(C)C)c4ccccc34)nc2c1 [Example 8] , value?
Output: 450

* * *

Let's look at some compounds and their measured pEC50.
Tested on: recombinant NL4-3 virus
measurementNotes: HIV cell culture assay (luciferase reporter antiviral activity)
Assay type: cell-based
assaySetup: Human immunodeficiency virus 1, NL43, MT2
Excerpt: HIV cell culture assay—MT=2 cells, 293T cells and the proviral DNA clone of NL4-3 virus were obtained from the NIH AIDS Research and Reference Reagent Program. […] Luciferase was quantitated using the EnduRen Live Cell Substrate from Promega (Madison, Wis.). Antiviral activities of compounds toward the recombinant virus were quantified by measuring luciferase activity in MT=2 cells infected for 4-5 days with the recombinant virus in the presence of serial dilutions of the compound. […]
// pEC50: -log10(molar conc.)

These recorded examples may help you get a feel for the data.
Cc1nccnc1-c1ccc2c(=O)n(-c3ccc(Cl)c4c(NS(C)(=O)=O)nn(C)c34)c([C@H](Cc3cc(F)cc(F)c3)NC(=O)Cn3nc(C(F)F)c4ccccc43)nc2c1 (atropisomer, axis not shown; (P))	9.42
Cn1nc(NS(C)(=O)=O)c2c(Cl)ccc(-n3c([C@H](Cc4cc(F)cc(F)c4)NC(=O)Cn4nc(C5CC5)c5ccccc54)nc4nc(-c5ccccc5F)ccc4c3=O)c21 (atropisomer, axis not shown; (P))	9.77
CS(=O)(=O)Nc1nn(CC(F)F)c2c(-n3c([C@H](Cc4cc(F)cc(F)c4)NC(=O)Cn4nc(C5CC5)cc4C(F)F)nc4nc(-c5ccccc5F)ccc4c3=O)ccc(Cl)c12 (atropisomer, axis not shown; (P))	9.28
O=C(Cn1nc(C(F)F)cc1C1CC1)N[C@@H](Cc1cc(F)cc(F)c1)c1nc2cc(-c3ccccn3)ccc2c(=O)n1-c1ccc(Cl)c2c(NS(=O)(=O)C3CC3)nn(CC(F)F)c12 (atropisomer, axis not shown; (P))	9.10

Input: Query: pEC50; subject: Cc1cc(C)nc(-c2ccc3c(=O)n(-c4ccc(Cl)c5c(NS(C)(=O)=O)nn(C)c45)c([C@H](Cc4cc(F)cc(F)c4)NC(=O)Cn4nc(C(F)(F)F)cc4C(F)(F)F)nc3c2)n1 (atropisomer, axis not shown; (P))
Output: 8.44

Input: Entry Cc1cc(F)ccc1-c1ccc2c(=O)n(-c3ccc(C)c4c(NS(C)(=O)=O)nn(C)c34)c([C@H](Cc3cc(F)cc(F)c3)NC(=O)Cn3nc(C(F)F)c4c3C(F)(F)[C@@H]3C[C@H]43)nc2c1 (atropisomer, axis not shown; (aR)) please
Output: 8.64

Input: Entry Cc1nccnc1-c1ccc2c(=O)n(-c3ccc(C)c4c(NS(C)(=O)=O)nn(C)c34)c(C(Cc3cc(F)cc(F)c3)NC(=O)Cn3nc(C(F)F)c4c3C(F)(F)[C@@H]3C[C@H]43)nc2c1 (some centres unmarked) please
Output: 10.25

Input: Entry O=C(Cn1nc(C2CC2)c2ccccc21)N[C@@H](Cc1cc(F)cc(F)c1)c1nc2nc(-c3ccccc3F)ccc2c(=O)n1-c1ccc(Cl)c2c(NS(=O)(=O)C3CC3)nn(CC(F)F)c12 (atropisomer, axis not shown; (P)) please
Output: 9.33

Input: Entry O=C(Cn1nc(C(F)F)cc1C1CC1)N[C@@H](Cc1cc(F)cc(F)c1)c1nc2cc(-c3ncccn3)ccc2c(=O)n1-c1ccc(Cl)c2c(NS(=O)(=O)C3CC3)nn(CC(F)F)c12 (atropisomer, axis not shown; (P)) please
Output: 9.40

Input: Entry Cn1nc(NS(C)(=O)=O)c2c(Cl)ccc(-n3c([C@H](Cc4cc(F)cc(F)c4)NC(=O)C(C)(C)n4ccc(C5CC5)n4)nc4nc(-c5ccccc5F)ccc4c3=O)c21 (atropisomer, axis not shown; (P)) please
Output: 9.66

Input: Entry CC(C)[C@H](C(=O)N[C@@H](Cc1cc(F)cc(F)c1)c1nc2nc(-c3ccccc3F)ccc2c(=O)n1-c1ccc(Cl)c2c(NS(C)(=O)=O)nn(CC(F)(F)F)c12)n1ccc(C2CC2)n1 (atropisomer, axis not shown; (P)) please
Output: 8.72

Input: Entry Cc1nccnc1-c1ccc2c(=O)n(-c3ccc(Cl)c4c(NS(C)(=O)=O)nn(C)c34)c([C@H](Cc3cc(F)cc(F)c3)NC(=O)Cn3nc(C4CC4)c4ccccc43)nc2c1 (atropisomer, axis not shown; (P)) please
Output: 9.68

Input: Entry Cn1nc(NS(C)(=O)=O)c2c(Cl)ccc(-n3c([C@H](Cc4cc(F)cc(F)c4)NC(=O)Cn4ccc(C(C)(C)C)n4)nc4nc(-c5ccccc5F)ccc4c3=O)c21 (atropisomer, axis not shown; (P)) please
Output: 9.28

Input: Entry Cc1nccnc1-c1ccc2c(=O)n(-c3ccc(Cl)c4c(NS(=O)(=O)C5CC5)nn(CC(F)F)c34)c([C@H](Cc3cc(F)cc(F)c3)NC(=O)Cn3nc(C(F)F)cc3C3CC3)nc2c1 (atropisomer, axis not shown; (P)) please
Output: 9.44

* * *

Test system: recombinant NL4-3 virus
measurementNotes: HIV cell culture assay (luciferase reporter antiviral activity)
Type: cell-based
assaySetup: Human immunodeficiency virus 1, NL43, MT2
Text: HIV cell culture assay—MT=2 cells, 293T cells and the proviral DNA clone of NL4-3 virus were obtained from the NIH AIDS Research and Reference Reagent Program. […] Luciferase was quantitated using the EnduRen Live Cell Substrate from Promega (Madison, Wis.). Antiviral activities of compounds toward the recombinant virus were quantified by measuring luciferase activity in MT=2 cells infected for 4-5 days with the recombinant virus in the presence of serial dilutions of the compound. […]
Mark Satisfied only for EC50 values smaller than 500 pM; exact matches and larger values are Not satisfied.

Examples with answers:
Cc1nccnc1-c1ccc2c(=O)n(-c3ccc(Cl)c4c(NS(C)(=O)=O)nn(C)c34)c([C@H](Cc3cc(F)cc(F)c3)NC(=O)Cn3nc(C(F)(F)F)cc3C(F)(F)F)nc2c1 (atropisomer, axis not shown; (P)) [Example 1]	Not satisfied
CC(C)(C(=O)N[C@@H](Cc1cc(F)cc(F)c1)c1nc2nc(-c3ccccc3F)ccc2c(=O)n1-c1ccc(Cl)c2c(NS(C)(=O)=O)nn(CC(F)F)c12)n1ccc(C2CC2)n1 (atropisomer, axis not shown; (P)) [Example 20]	Not satisfied
CS(=O)(=O)Nc1nn(CC(F)F)c2c(-n3c([C@H](Cc4cc(F)cc(F)c4)NC(=O)Cn4nc(C5CC5)c5ccccc54)nc4nc(-c5ccccc5F)ccc4c3=O)ccc(Cl)c12 (atropisomer, axis not shown; (P)) [Example 18]	Satisfied
CC(C)[C@@H](C(=O)N[C@@H](Cc1cc(F)cc(F)c1)c1nc2nc(-c3ccccc3F)ccc2c(=O)n1-c1ccc(Cl)c2c(NS(C)(=O)=O)nn(CC(F)(F)F)c12)n1ccc(C2CC2)n1 (atropisomer, axis not shown; (P)) [Example 23]	Satisfied
Cn1nc(NS(C)(=O)=O)c2c(Cl)ccc(-n3c([C@H](Cc4cc(F)cc(F)c4)NC(=O)Cn4nc(C5CC5)cc4C(F)F)nc4cc(-c5ccccc5F)ccc4c3=O)c21 (atropisomer, axis not shown; (P)) [Example 29]	Not satisfied

Input: Does this compound meet the criterion EC50 < 500 pM? Cc1cc(C)nc(-c2ccc3c(=O)n(-c4ccc(Cl)c5c(NS(C)(=O)=O)nn(C)c45)c([C@H](Cc4cc(F)cc(F)c4)NC(=O)Cn4nc(C5CC5)c5ccccc54)nc3c2)n1 (atropisomer, axis not shown; (P)) [Example 4]
Output: Not satisfied

Input: Entry Cn1nc(NS(C)(=O)=O)c2c(Cl)ccc(-n3c([C@H](Cc4cc(F)cc(F)c4)NC(=O)Cn4ccc5ccccc54)nc4cc(-c5ccccc5F)ccc4c3=O)c21 [Example 30] please
Output: Not satisfied

Input: Entry CC(C)(C(=O)N[C@@H](Cc1cc(F)cc(F)c1)c1nc2nc(-c3ccccc3F)ccc2c(=O)n1-c1ccc(Cl)c2c(NS(C)(=O)=O)nn(CC(F)(F)F)c12)n1ccc(C2CC2)n1 (atropisomer, axis not shown; (P)) [Example 22] please
Output: Not satisfied

Input: Entry Cc1nccnc1-c1ccc2c(=O)n(-c3ccc(Cl)c4c(NS(C)(=O)=O)nn(C)c34)c([C@H](Cc3cc(F)cc(F)c3)NC(=O)Cn3ccc(C4CCC4)n3)nc2c1 (atropisomer, axis not shown; (P)) [Example 11] please
Output: Satisfied

Input: Entry Cc1nccnc1-c1ccc2c(=O)n(-c3ccc(C)c4c(NS(C)(=O)=O)nn(CC(F)F)c34)c([C@H](Cc3cc(F)cc(F)c3)NC(=O)Cn3nc(C(F)F)c4c3C(F)(F)[C@@H]3C[C@H]43)nc2c1 (atropisomer, axis not shown; (P)) [Example 32] please
Output: Satisfied

Input: Entry CC(C)(C(=O)N[C@@H](Cc1cc(F)cc(F)c1)c1nc2nc(-c3ccccc3F)ccc2c(=O)n1-c1ccc(Cl)c2c(NS(=O)(=O)C3CC3)nn(CC(F)F)c12)n1ccc(C2CC2)n1 (atropisomer, axis not shown; (P)) [Example 21] please
Output: Not satisfied

Input: Entry Cc1nccnc1-c1ccc2c(=O)n(-c3ccc(Cl)c4c(NS(C)(=O)=O)nn(C)c34)c([C@H](Cc3cc(F)cc(F)c3)NC(=O)Cn3ccc(C(C)(C)C)n3)nc2c1 (atropisomer, axis not shown; (P)) [Example 5] please
Output: Not satisfied

Input: Entry Cc1nccnc1-c1ccc2c(=O)n(-c3ccc(Cl)c4c(NS(C)(=O)=O)nn(C)c34)c([C@H](Cc3cc(F)cc(F)c3)NC(=O)Cn3nc(C4CC4)cc3C)nc2c1 (atropisomer, axis not shown; (P)) [Example 10] please
Output: Satisfied

Input: Entry CS(=O)(=O)Nc1nn(CC(F)F)c2c(-n3c([C@H](Cc4cc(F)cc(F)c4)NC(=O)Cn4nc(C(F)F)cc4C4CC4)nc4nc(-c5ccccc5F)ccc4c3=O)ccc(Cl)c12 (atropisomer, axis not shown; (P)) [Example 16] please
Output: Satisfied

Input: Entry CC(C)[C@H](C(=O)N[C@@H](Cc1cc(F)cc(F)c1)c1nc2nc(-c3ccccc3F)ccc2c(=O)n1-c1ccc(Cl)c2c(NS(=O)(=O)C3CC3)nn(CC(F)F)c12)n1ccc(C2CC2)n1 (atropisomer, axis not shown; (P)) [Example 24] please
Output: Not satisfied
